molecular target: 5-HT1A receptor (Homo sapiens, UniProt P08908); test: cell-based; conditions: EC50 (activation of receptor-mediated GIRK current), wt receptor, holding potential −80 mV, 72 mM Na+ solution
Sequence (P08908 whole entry): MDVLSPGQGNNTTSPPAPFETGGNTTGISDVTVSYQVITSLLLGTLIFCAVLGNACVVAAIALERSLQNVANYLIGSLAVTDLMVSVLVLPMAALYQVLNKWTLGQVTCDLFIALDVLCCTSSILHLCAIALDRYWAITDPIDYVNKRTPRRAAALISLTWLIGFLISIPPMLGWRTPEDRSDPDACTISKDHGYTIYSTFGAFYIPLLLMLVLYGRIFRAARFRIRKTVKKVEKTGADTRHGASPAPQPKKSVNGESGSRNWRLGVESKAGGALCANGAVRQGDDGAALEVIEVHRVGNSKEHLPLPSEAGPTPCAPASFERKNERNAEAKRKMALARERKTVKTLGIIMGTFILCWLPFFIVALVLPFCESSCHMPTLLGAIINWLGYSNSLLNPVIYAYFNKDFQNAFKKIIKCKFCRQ
quantityName: EC50 (µM)
One number for each entry, in µM.

Request: Tell me the measured EC50 of "O=C1[C@@H]2[C@H]3CC[C@H](C3)[C@@H]2C(=O)N1CCCCN1CCN(c2ncccn2)CC1" , please.
Result: 0.194

# credit: paper PMC9136116
